- System: UO-31 renal
- method.description: NCI tumour cell line growth inhibition, 48 h
Hi there, I'd appreciate the recorded log10(TGI) for every entry that follows.
Field: value | Transform: log10 | Quantity: TGI | Unit: µM

The examples below pair each entry with its known result.
Field log10(TGI) (entry `COc1ccc(-c2cncn2-c2cc(OC)c(OC)c(OC)c2)cc1` ) reads 1.26

Record `Cc1cc(-c2nc3cccc(O)c3s2)ccc1N` . Reported log10(TGI): 1.40

Input `CSc1cnc2ccccc2c1Sc1c[nH]c2ccccc2c1=O` . Output log10(TGI): 1.65

# compound `O=[N+]([O-])/C(C(Cl)=C(Cl)Cl)=C(/Nc1cccc2cccnc12)n1nnc2ccccc21` ; its log10(TGI) = 1.48

log10(TGI) in this record for `CCCc1cc(=O)n2c(C(=O)Nc3ccc(F)cc3)c(C(=O)Nc3ccc(F)cc3)sc2n1` : 2.00

The value of log10(TGI) measured for the compound `ClCc1ccccc1Cn1cnc2ncnc(Cl)c21` turned out to be 1.03

Hi team, please reply with log10(TGI) for each item in this list.
1. COc1ccc(/C=C/c2c(C(=O)/C=C/c3ccc(C(F)(F)F)cc3)c(C)nc3ccccc23)cc1
2. CC(C)OC(=S)Nc1ccc(Cl)c(/C=N/OC(C)(C)C)c1
3. CC(=O)O[C@H]1CC2C(C3CCC(C(C)CCC(N)=O)[C@]31C)[C@H](OC(C)=O)C[C@@H]1CC3(CC[C@]21C)OOC1(CC[C@]2(C)C4C[C@H](OC(C)=O)[C@]5(C)C(C(C)CCC(N)=O)CCC5C4[C@H](OC(C)=O)C[C@@H]2C1)OO3 (stereo partly specified)

[out]
0.37
1.43
0.37
